Target: human ether-à-go-go-related gene (hERG) potassium channel (human);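 note: peak tail current of the secondary pulse compared with the same well before compound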
Sequence (Q12809 whole entry, looked up): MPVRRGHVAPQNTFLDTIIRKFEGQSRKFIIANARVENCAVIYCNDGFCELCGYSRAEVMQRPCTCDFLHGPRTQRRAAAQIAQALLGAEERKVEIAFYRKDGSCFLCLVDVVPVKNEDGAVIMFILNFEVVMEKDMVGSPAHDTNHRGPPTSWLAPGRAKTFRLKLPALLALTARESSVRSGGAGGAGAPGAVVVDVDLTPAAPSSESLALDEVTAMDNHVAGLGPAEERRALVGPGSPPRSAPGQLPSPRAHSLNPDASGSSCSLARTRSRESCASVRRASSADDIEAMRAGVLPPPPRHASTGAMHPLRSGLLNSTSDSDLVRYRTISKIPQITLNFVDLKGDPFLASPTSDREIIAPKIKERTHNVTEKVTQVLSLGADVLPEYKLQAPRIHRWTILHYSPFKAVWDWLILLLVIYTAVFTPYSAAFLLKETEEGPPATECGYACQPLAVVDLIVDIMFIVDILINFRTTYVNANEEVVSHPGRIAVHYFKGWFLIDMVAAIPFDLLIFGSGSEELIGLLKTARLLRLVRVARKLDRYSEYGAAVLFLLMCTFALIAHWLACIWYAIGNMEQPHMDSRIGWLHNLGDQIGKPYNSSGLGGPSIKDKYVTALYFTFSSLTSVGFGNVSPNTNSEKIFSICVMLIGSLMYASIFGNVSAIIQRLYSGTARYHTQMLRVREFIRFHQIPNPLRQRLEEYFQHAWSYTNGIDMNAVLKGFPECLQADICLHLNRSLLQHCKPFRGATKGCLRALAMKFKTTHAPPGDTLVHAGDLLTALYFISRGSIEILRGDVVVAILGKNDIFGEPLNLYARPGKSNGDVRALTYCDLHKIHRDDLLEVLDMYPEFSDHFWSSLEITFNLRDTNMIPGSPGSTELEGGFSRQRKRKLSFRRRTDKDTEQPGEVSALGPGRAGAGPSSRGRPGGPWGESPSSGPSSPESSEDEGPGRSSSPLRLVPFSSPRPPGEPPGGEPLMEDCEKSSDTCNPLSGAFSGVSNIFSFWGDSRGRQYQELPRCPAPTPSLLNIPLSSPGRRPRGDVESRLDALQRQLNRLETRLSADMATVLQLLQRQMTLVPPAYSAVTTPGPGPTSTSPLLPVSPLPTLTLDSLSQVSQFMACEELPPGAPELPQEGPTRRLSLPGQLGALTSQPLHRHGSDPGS
Test: primary screen, population patch clamp on CHO cells stably expressing hERG; higher = less effect of the substance
Among all 310,000 compounds or so, about 14,000 (4.5%) showed an effect of 50% or more. The effect is printed as a negative number. Shown is part of a subset that was picked to be rich in strong results.
Classification field: true (1) = hERG current change (%, negative = inhibition) at 10uM at or over -50%; false (0) = hERG current change (%, negative = inhibition) at 10uM under -50%.

Would you please look over these solved cases?
COc1ccccc1C(=O)Nc1ccnn1C1CCN(C(=O)C2CCOC2)CC1 (centres unmarked)    true (1)
COc1ccccc1C(=O)Nc1ccnn1C1CCN(C(C)CSC)CC1 (centres unmarked)    false (0)
CN1CCN(C(=O)CCN2C(=O)c3ccccc3C2=O)CC1    true (1)

*Q* Reported hERG current change (%, negative = inhibition) at 10uM at or above -50%? O=C(CCN1C(=O)c2ccccc2C1=O)N1CCN(Cc2ccc(Cl)cc2Cl)CC1
*A* false (0)

Ref: paper PMC4336329
